This listing pairs compounds with measured log10 Ki.
Assay: Displacement of [3H]muscimol from GABAA receptor in Sprague-Dawley rat brain membrane`after 60 mins by TopCount microplate scintillation counting analysis
Values reflect log10 of reported Ki (nM).

{"columns": ["smilesStr", "log10 Ki"],
 "data": [
  ["Oc1noc(C2CCNCC2)c1CCCC(c1ccccc1)c1ccccc1", 2.85]
]}

# log10 Ki (compound: Oc1noc(C2CCNCC2)c1CCc1ccc2ccccc2c1 ) is 2.69

Form field log10 Ki, entry N#Cc1c(Cc2c(O)noc2C2CCNCC2)ccc2ccccc12 : 1.45

# compound On1nc(-c2ccccc2)c(C2CCNCC2)c1Cc1cccc2ccccc12 ; its log10 Ki = 3.18

The recorded log10 Ki for entry Oc1noc(C2CCNCC2)c1Cc1ccc2ccccc2c1F equals 1.28

So, Oc1noc(C2CCNCC2)c1Cc1ccc2ccccc2c1Cl ? Its log10 Ki was 1.20

###

Test: Displacement of [3H]muscimol from GABAA receptor in Sprague-Dawley rat brain membrane`after 60 mins by TopCount microplate scintillation counting analysis
Entries and their measured pKi follow.
Please report pKi as the negative decimal logarithm of the molar concentration, giving only the number.

{"columns": ["smilesStr", "pKi"],
 "data": [
  ["Oc1noc(C2CCNCC2)c1-c1ccc2ccccc2c1", 7.44],
  ["On1nc(Cc2cccc3ccccc23)c(C2CCNCC2)c1-c1ccccc1", 7.66],
  ["Oc1noc(C2CCNCC2)c1Cc1ccc2cccc(Br)c2c1", 7.35]
]}

Item: Oc1noc(C2CCNCC2)c1Cc1ccc2c(Br)cccc2c1 | pKi: 7.10

// recorded pKi for Oc1noc(C2CCNCC2)c1Cc1cccc2ccccc12 : 7.00

Entry Oc1noc(C2CCNCC2)c1C(c1ccccc1)c1ccccc1 — recorded pKi = 6.02

Lab note: measured pKi of CC1(c2cc(O)no2)CCNCC1 was 4.43

Lookup result for Oc1noc(C2CCNCC2)c1-c1cccc2ccccc12 ; measured pKi: 6.09

###

Experiment: Displacement of [3H]muscimol from GABAA receptor in Sprague-Dawley rat brain membrane`after 60 mins by TopCount microplate scintillation counting analysis
metric: pKi
Answer field: number only, no words.

{"columns": ["smilesStr", "pKi"],
 "data": [
  ["CC1(c2cc(O)no2)CCNCC1", 4.43]
]}

Lookup result for On1nc(-c2ccccc2)c(C2CCNCC2)c1Cc1cccc2ccccc12 ; measured pKi: 5.82

The compound listed as Oc1noc(C2CCNCC2)c1Cc1ccc2ccccc2c1Cl shows pKi equal to 7.8

Sure, the documented pKi for Oc1noc(C2CCNCC2)c1Cc1cccc2ccccc12 is 7

pKi reading for Oc1noc(C2CCNCC2)c1-c1ccc2ccccc2c1 : 7.44

###

Experiment: Displacement of [3H]muscimol from GABAA receptor in Sprague-Dawley rat brain membrane`after 60 mins by TopCount microplate scintillation counting analysis
metric: Ki (nM)
Number only, in nM; omit the unit.

Worked examples follow.
{"columns": ["smilesStr", "Ki [nM]"],
 "data": [
  ["Oc1noc(C2CCNCC2)c1Cc1ccc2ccc(Br)cc2c1", 109],
  ["Oc1noc(C2CCNCC2)c1Cc1ccc2ccccc2c1-c1ccccc1", 21]
]}

Lab note: next molecule to report on.
Short answer for CSc1c(Cc2c(O)noc2C2CCNCC2)ccc2ccccc12 : Ki was 28

###

Assay: Displacement of [3H]muscimol from GABAA receptor in Sprague-Dawley rat brain membrane`after 60 mins by TopCount microplate scintillation counting analysis
Rule: T for pKi not less than 7, F for anything less.

Observe how each entry below is paired with its result.
{"columns": ["smilesStr", "groupLabel"],
 "data": [
  ["Oc1noc(C2CCNCC2)c1CCCC(c1ccccc1)c1ccccc1", "F"],
  ["Oc1noc(C2CCNCC2)c1Cc1ccc2cccc(Br)c2c1", "T"],
  ["On1nc(Cc2cccc3ccccc23)c(C2CCNCC2)c1-c1ccccc1", "T"],
  ["Oc1noc(C2CCNCC2)c1-c1cccc2ccccc12", "F"],
  ["Oc1noc(C2CCNCC2)c1C(c1ccccc1)c1ccccc1", "F"]
]}

Field: next molecule
Textbook exercise: given the entry Oc1noc(C2CCNCC2)c1CCc1ccc2ccccc2c1 , state whether its pKi is greater than or equal to 7.
F
